Source of measurements: the supplement of paper PMC9694430

test system: LOC_OS01G60700-cb002; test: thermal shift delta Tm vs DMSO control; higher = stronger stabilization (binding); conditions: 12.5 µM; protein concentration 2 µM;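 further: purified Escherichia coli-expressed rice kinase domain construct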
Counter-ions that a name gives are not always drawn.
Class (by thermal shift delta Tm) -- bottom (below 0.4 °C), middle (0.4 °C to below 0.9 °C), top (0.9 °C or more)

Hi, small favor: classify `CCOc1ccn(-c2ccc(F)cc2)c(=O)c1C(=O)Nc1ccc(Oc2ccnc(N)c2Cl)c(F)c1` by its thermal shift delta Tm when you get a moment.
bottom

Hi, small favor: classify `O=C(O)c1ccc2c(c1)nc(Nc1cccc(Cl)c1)c1ccncc12` by its thermal shift delta Tm when you get a moment.
top

Hi, small favor: classify `CC(C)c1ccc2oc3nc(N)c(C(=O)O)cc3c(=O)c2c1` by its thermal shift delta Tm when you get a moment.
bottom

Hi, small favor: classify `CCCCCCCCCCCCCCCCCCOP(=O)([O-])OC1CC[N+](C)(C)CC1` by its thermal shift delta Tm when you get a moment.
bottom

Hi, small favor: classify CC#CC(=O)N1CC[C@@H](n2c(=O)n(-c3ccc(Oc4ccccc4)cc3)c3c(N)ncnc32)C1 [ONO-4059 (GS-4059) hydrochloride] by its thermal shift delta Tm when you get a moment.
top

Hi, small favor: classify `C[C@H](NC(=O)c1c(N)nn2cccnc12)c1cc2cccc(C#Cc3cnn(C)c3)c2c(=O)n1-c1ccccc1` by its thermal shift delta Tm when you get a moment.
bottom

Hi, small favor: classify `C[C@H]1CNC(=O)c2cnn3ccc(nc23)N[C@H](C)c2cc(F)ccc2O1` by its thermal shift delta Tm when you get a moment.
bottom

Hi, small favor: classify O=C(Nc1ccccc1C(=O)NC1CCCCNC1=O)c1cc2ccccc2s1 (configuration not stated) by its thermal shift delta Tm when you get a moment.
middle

Hi, small favor: classify `CO[C@H]1C[C@@H]2CC[C@@H](C)[C@@](O)(O2)C(=O)C(=O)N2CCCC[C@H]2C(=O)O[C@H]([C@H](C)C[C@@H]2CC[C@@H](OC(=O)C(C)(CO)CO)[C@H](OC)C2)CC(=O)[C@H](C)/C=C(\C)[C@@H](O)[C@@H](OC)C(=O)[C@H](C)C[C@H](C)/C=C/C=C/C=C/1C` by its thermal shift delta Tm when you get a moment.
middle

Hi, small favor: classify `N#C/C(=C(/N)Sc1ccc(N)cc1)c1ccccc1C(F)(F)F` by its thermal shift delta Tm when you get a moment.
middle

Hi, small favor: classify `COc1ccc2[nH]cc(/C=C3\C(=O)Nc4ccc(NC(=O)CCN5CCCCC5)cc43)c2c1` by its thermal shift delta Tm when you get a moment.
top

Hi, small favor: classify `Nc1ncnc2c1c(-c1cnc3[nH]ccc3c1)nn2C1CCCC1` by its thermal shift delta Tm when you get a moment.
top

Hi, small favor: classify `C=CC(=O)Nc1cccc(Oc2nc(Nc3ccc(N4CCN(C)CC4)cc3OC)ncc2Cl)c1` by its thermal shift delta Tm when you get a moment.
middle

Hi, small favor: classify `O=C(O)c1ccc(Nc2ncc3c(n2)-c2ccc(Cl)cc2C(c2c(F)cccc2F)=NC3)cc1` by its thermal shift delta Tm when you get a moment.
middle

Hi, small favor: classify CCCCNc1ncc(-c2ccc(CN3CCOCC3)cn2)c(NC2CCC(O)CC2)n1 (configuration not stated) by its thermal shift delta Tm when you get a moment.
bottom

Hi, small favor: classify `COc1ccc(C(=O)Nc2sc3c(c2C(N)=O)CCCC3)cc1OC` by its thermal shift delta Tm when you get a moment.
top
